This collection of values is drawn from patent US10245261B2.

- target-of-assay: Ret(h) (Homo sapiens)
- Sequence (P07949 29-1114): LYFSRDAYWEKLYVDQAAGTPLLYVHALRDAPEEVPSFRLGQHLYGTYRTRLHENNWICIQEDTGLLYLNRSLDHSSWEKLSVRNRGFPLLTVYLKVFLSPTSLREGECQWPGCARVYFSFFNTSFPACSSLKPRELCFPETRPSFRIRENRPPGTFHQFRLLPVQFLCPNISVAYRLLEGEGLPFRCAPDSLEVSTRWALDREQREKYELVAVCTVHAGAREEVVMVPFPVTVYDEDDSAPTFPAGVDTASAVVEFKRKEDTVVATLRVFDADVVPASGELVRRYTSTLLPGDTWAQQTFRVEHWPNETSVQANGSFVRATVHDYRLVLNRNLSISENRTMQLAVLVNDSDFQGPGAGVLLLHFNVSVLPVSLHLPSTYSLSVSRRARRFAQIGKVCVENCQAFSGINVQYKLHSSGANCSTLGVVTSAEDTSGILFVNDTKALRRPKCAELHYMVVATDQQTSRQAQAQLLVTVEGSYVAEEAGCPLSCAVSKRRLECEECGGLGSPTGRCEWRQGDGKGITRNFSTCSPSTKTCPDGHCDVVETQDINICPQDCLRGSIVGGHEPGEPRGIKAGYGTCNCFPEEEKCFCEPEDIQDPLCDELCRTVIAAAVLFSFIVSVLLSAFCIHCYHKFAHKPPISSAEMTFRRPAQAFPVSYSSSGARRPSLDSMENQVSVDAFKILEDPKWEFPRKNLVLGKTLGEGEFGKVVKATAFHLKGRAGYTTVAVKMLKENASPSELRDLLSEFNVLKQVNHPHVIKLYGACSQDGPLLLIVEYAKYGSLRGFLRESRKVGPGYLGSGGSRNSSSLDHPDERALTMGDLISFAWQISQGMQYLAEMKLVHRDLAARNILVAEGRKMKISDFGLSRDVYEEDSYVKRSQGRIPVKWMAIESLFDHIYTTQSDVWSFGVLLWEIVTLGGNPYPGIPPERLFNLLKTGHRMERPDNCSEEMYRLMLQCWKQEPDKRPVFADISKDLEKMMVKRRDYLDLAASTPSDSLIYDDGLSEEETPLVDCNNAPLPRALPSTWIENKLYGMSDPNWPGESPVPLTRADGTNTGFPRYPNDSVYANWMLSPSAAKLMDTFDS
- protocol-summary: KinaseProfiler kinase assay
- Assay type: biochemical
- Experimental: This example tests the inhibitory properties of representative compounds of the invention in c-Src kinase, Aurora-A kinase, Flt3 kinase, Ret kinase and TrkA Kinase assays (see, Daniele Fancelli et al, J. Med. Chem., 2006, 49 (24), pp 7247-7251). […] The Kinase Hotspot℠ kinase assay was also used to test the compounds for IC50 or % inhibitions (Reaction Biology Corp.). Inhibitory IC50 values were determined by titration of compound at the optimal kinase concentration (Kinase EC50).
Would you mind telling me the reported inhibition at 1 µM of each entry?
Answer format: numeric, % implied, no suffix.

Q) Request: inhibition at 1 µM, test system Ret(h) (Homo sapiens), entry `Cc1cc2c(F)c(Oc3nc(Nc4cc(C5CC5)[nH]n4)cc(N4CCNC(=O)C4)n3)ccc2[nH]1`
A) 100

Q) Same question, `C/C=C/c1cc(Nc2cc(N3CCC(OC)CC3)nc(Oc3ccc4[nH]c(C)cc4c3F)n2)n[nH]1` this time
A) 102

Q) Same question, CCC1CN(c2cc(Nc3cc(C4CC4)[nH]n3)nc(Oc3ccc4[nH]c(C)cc4c3F)n2)CCN1 (centres unmarked) this time
A) 101

Q) Same question, `CCN1CCN(c2cc(Nc3cc(C)[nH]n3)nc(Oc3cc(F)c4[nH]c(C)cc4c3F)n2)CC1` this time
A) 101

Q) Same question, `Cc1cc2c(F)c(Oc3nc(Nc4cc(C5CC5)[nH]n4)cc(N4CCN(C)CC4)n3)ccc2n1C` this time
A) 101

Q) Same question, `Cc1cc2c(F)c(Oc3nc(Nc4cc(C5CC5)[nH]n4)cc(N4CCNCC4)n3)ccc2[nH]1` this time
A) 101

Q) Same question, C/C=C/c1cc(Nc2cc(N3CCC(OC)C3)nc(Oc3cc(F)c4[nH]c(C)cc4c3F)n2)n[nH]1 (centres unmarked) this time
A) 102

Q) Same question, `Cc1cc2c(F)c(Oc3nc(Nc4cc(C5CC5)[nH]n4)cc(N4CCC(O)CC4)n3)ccc2[nH]1` this time
A) 100

Q) Same question, `C/C=C/c1cc(Nc2cc(N3CCN(S(C)(=O)=O)CC3)nc(Oc3cc(F)c4[nH]c(C)cc4c3F)n2)n[nH]1` this time
A) 102

Q) Same question, `CCN1CCN(c2cc(Nc3cc(C4CC4)[nH]n3)nc(Oc3ccc4[nH]c(C)cc4c3F)n2)CC1` this time
A) 102

Q) Same question, `Cc1cc2c(F)c(Oc3nc(Nc4cc(C5CC5)[nH]n4)cc(N4CCOCC4)n3)ccc2n1C` this time
A) 102

Q) Same question, `C/C=C/c1cc(Nc2cc(N3CCN(CCF)CC3)nc(Oc3ccc4[nH]c(C)cc4c3F)n2)n[nH]1` this time
A) 102

Q) Same question, C/C=C/c1cc(Nc2cc(N3CCC(N(CC)CC)C3)nc(Oc3cc(F)c4[nH]c(C)cc4c3F)n2)n[nH]1 (centres unmarked) this time
A) 102

Q) Same question, `Cc1cc2c(F)c(Oc3nc(Nc4cc(C5CC5)[nH]n4)cc(N4CCN(CCO)CC4)n3)ccc2[nH]1` this time
A) 101

Q) Same question, `C/C=C/c1cc(Nc2cc(N3CCN(C)CC3)nc(Oc3ccc4c(cc(C)n4C)c3F)n2)n[nH]1` this time
A) 101

Q) Same question, `C/C=C/c1cc(Nc2cc(N3CCC(O)CC3)nc(Oc3ccc4[nH]c(C)cc4c3F)n2)n[nH]1` this time
A) 102

Q) Same question, `C/C=C/c1cc(Nc2cc(N3CCOCC3)nc(Oc3cc(F)c4[nH]c(C)cc4c3F)n2)n[nH]1` this time
A) 99

Q) Same question, C/C=C/c1cc(Nc2cc(N3CCC(O)C3)nc(Oc3ccc4[nH]c(C)cc4c3F)n2)n[nH]1 (centres unmarked) this time
A) 102

Q) Same question, COCC1CCN(c2cc(Nc3cc(C4CC4)[nH]n3)nc(Oc3ccc4[nH]c(C)cc4c3F)n2)C1 (centres unmarked) this time
A) 100

Q) Same question, `C/C=C/c1cc(Nc2cc(N3CCNCC3)nc(Oc3cc(F)c4[nH]c(C)cc4c3F)n2)n[nH]1` this time
A) 99

Q) Same question, `Cc1cc(Nc2cc(N3CCNCC3)nc(Oc3cc(F)c4[nH]c(C)cc4c3F)n2)n[nH]1` this time
A) 98

Q) Same question, C/C=C/c1cc(Nc2cc(N3CCC(O)C3)nc(Oc3cc(F)c4[nH]c(C)cc4c3F)n2)n[nH]1 (centres unmarked) this time
A) 102

Q) Same question, `Cc1cc2c(F)c(Oc3nc(Nc4cc(C5CC5)[nH]n4)cc(N4CCOCC4)n3)ccc2[nH]1` this time
A) 100

Q) Same question, `Cc1cc2c(F)c(Oc3nc(Nc4cc(C5CC5)[nH]n4)cc(N4CCN(CCO)CC4)n3)cc(F)c2[nH]1` this time
A) 101

Q) Same question, C/C=C/c1cc(Nc2cc(N3CCC(N(CC)CC)C3)nc(Oc3ccc4[nH]c(C)cc4c3F)n2)n[nH]1 (centres unmarked) this time
A) 102

Q) Same question, `C/C=C/c1cc(Nc2cc(N3CCN(C)CC3)nc(Oc3ccc4[nH]c(C)cc4c3Cl)n2)n[nH]1` this time
A) 102

Q) Same question, Cc1cc2c(F)c(Oc3nc(Nc4cc(C5CC5)[nH]n4)cc(N4CCOC(CN)C4)n3)ccc2[nH]1 (centres unmarked) this time
A) 101

Q) Same question, `C/C=C/c1cc(Nc2cc(N3CCOCC3)nc(Oc3ccc4[nH]c(C)cc4c3F)n2)n[nH]1` this time
A) 100

Q) Same question, `Cc1cc2c(F)c(Oc3nc(Nc4cc(C5CC5)[nH]n4)cc(N4CCN(c5cccnc5)CC4)n3)ccc2[nH]1` this time
A) 101
